# maps each entry to its Ki
- Target Entity: Adenosine A2 receptor (Rattus norvegicus, UniProt P29276+P30543)
- Protocol Text: Binding affinity for Adenosine A2 receptor from rat striatal membranes
Record the value in nM, omitting the unit from your answer.

Using known records, supply Ki for CCCn1c(=O)c2nc(C3CC4CC3C3OC43)[nH]c2n(CCC)c1=O (stereo in doubt; 12)
1250

Using known records, supply Ki for CCCn1c(=O)c2nc(C3CC4CC3C3OC43)[nH]c2n(CCC)c1=O (stereo in doubt)
309

Using known records, supply Ki for CCCn1c(=O)c2nc(C34CC5CC(CC3C5)C4)[nH]c2n(CCC)c1=O
510

Using known records, supply Ki for CCCn1c(=O)c2nc(C3CC4CC3C3OC43)[nH]c2n(CCC)c1=O (stereo in doubt; 8)
551
